# experimental_system: human vitronectin receptor (αv β3) (Homo sapiens, UniProt P05106+P06756)
# Construct: Human vitronectin receptor(αv β3) was purified from human placenta
# assay_method_text: Solid Phase Receptor Assay: purified vitronectin receptor (αv β3), competition with biotinylated vitronectin
# condition_notes: 1 nM biotinylated vitronectin, read-out: VnR/IC50
Where a name gives a salt, the structure may show the parent alone.
recorded_endpoint: IC50 (nM)

[1] CCOC(=O)CC(NC(=O)CNC(=O)CCCNC(=N)N)c1cccnc1 (racemic) [Example 3-ethyl ester]
[2] N=C(N)NCCCCC(=O)N1CCC[C@H]1C(=O)N[C@@H](CC(=O)O)c1cccnc1 [Example 2, bistrifluoroacetate salt]
Request: Consider 1 and 2 . Which of these has its IC50 at a higher number? Write down the label of the entry you select.
Response: 1
(1: 987 nM, 2: 142 nM)
